test system: 966289-007-R4-J1-PDC complex spheroid viability; assay: Anticancer human tumor 966289-007-R4-J1-PDC patient-derived pancreatic adenocarcinoma cell line growth inhibition [RAS]; conditions: curve of first compound; second compound 0.3 µM;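 further: spheroids exposed to agents for one week before readout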
pIC50: −log10 of the molar value.
Measured pIC50, listed per entry for reference.
Property label: pIC50

CC(=O)OC12COC1CC(O)C1(C)C(=O)C(O)C3=C(C)C(OC(=O)C(O)C(NC(=O)OC(C)(C)C)c4ccccc4)CC(O)(C(OC(=O)c4ccccc4)C21)C3(C)C (centres undefined) + CCn1c(-c2cccnc2C(C)OC)c2c3cc(ccc31)N1CCOC(CC(NC(=O)C(C(C)C)N(C)C(=O)C3(F)CCN(C(=O)C#CC(C)(C)N(C)C)CC3)C(=O)N3CCCC(N3)C(=O)OCC(C)(C)C2)C1; > 7.50
CC(=O)OC12COC1CC(O)C1(C)C(=O)C(O)C3=C(C)C(OC(=O)C(O)C(NC(=O)OC(C)(C)C)c4ccccc4)CC(O)(C(OC(=O)c4ccccc4)C21)C3(C)C (centres undefined) + CCn1c(-c2cc(N3CCN(C)CC3)cnc2C(C)OC)c2c3cc(ccc31)-c1csc(n1)CC(NC(=O)C1CC1C)C(=O)N1CCCC(N1)C(=O)OCC(C)(C)C2; > 7.50
CC(Nc1ccc2c(c1)OCCn1cc(N3C(=O)OCC3C(F)F)nc1-2)C(N)=O (centres undefined) + CCn1c(-c2cc(N3CCN(C)CC3)cnc2C(C)OC)c2c3cc(ccc31)-c1csc(n1)CC(NC(=O)C1CC1C)C(=O)N1CCCC(N1)C(=O)OCC(C)(C)C2; < 5.00
NC1c2ccccc2OC12CCN(c1cnc3c(N4CCCc5ncccc54)n[nH]c3n1)CC2 (centres undefined) + CCn1c(-c2cccnc2C(C)OC)c2c3cc(ccc31)N1CCOC(CC(NC(=O)C(C(C)C)N(C)C(=O)C3(F)CCN(C(=O)C#CC(C)(C)N(C)C)CC3)C(=O)N3CCCC(N3)C(=O)OCC(C)(C)C2)C1; < 5.00
